# pKi annotations
target: Somatostatin receptor type 3 (Homo sapiens, UniProt P32745); assay: Inhibitory constant on human somatostatin receptor type 3
Sequence (P32745 whole entry): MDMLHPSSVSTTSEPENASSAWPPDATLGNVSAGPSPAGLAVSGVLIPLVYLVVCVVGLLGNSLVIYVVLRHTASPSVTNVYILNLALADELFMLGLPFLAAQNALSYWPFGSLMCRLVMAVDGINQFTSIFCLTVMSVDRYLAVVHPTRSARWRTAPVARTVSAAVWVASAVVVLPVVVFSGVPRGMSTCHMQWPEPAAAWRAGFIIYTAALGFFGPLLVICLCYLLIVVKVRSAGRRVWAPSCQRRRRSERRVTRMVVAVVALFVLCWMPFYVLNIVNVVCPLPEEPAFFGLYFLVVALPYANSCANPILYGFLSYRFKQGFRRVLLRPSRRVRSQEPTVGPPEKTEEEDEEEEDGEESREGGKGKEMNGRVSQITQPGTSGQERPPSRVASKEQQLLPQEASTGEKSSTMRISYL
pKi: −log10 of the molar value.
parameter: pKi

INSERT INTO results (chemicalstring, censoringsign, recordedmeasurement) VALUES
  ('NCCCc1nc(-c2cccc([N+](=O)[O-])c2)cn2cc(-c3ccccc3)nc12', '=', 5.60),
  ('CC(C)(C(=O)NCCc1c[nH]c2ccccc12)c1cn2cc(-c3csc4ccccc34)nc(CCCN)c2n1', '=', 5.00),
  ('NCCCc1nc(-c2ccccc2)cn2cc(-c3ccccc3)nc12', '<', 5.30),
  ('CC(C)(C(=O)NC1CCCCC1)c1cn2cc(-c3csc4ccccc34)nc(CCCN)c2n1', '=', 5.43),
  ('CC(C)(C(=O)NCCc1c[nH]c2ccccc12)c1cn2cc(Cc3ccccc3)nc(CCCN)c2n1', '=', 5.92),
  ('NCCCc1nc(-c2csc3ccccc23)cn2cc(-c3ccccc3)nc12', '=', 5.77),
  ('CCCCNC(=O)C(C)(C)c1cn2cc(-c3csc4ccccc34)nc(CCCN)c2n1', '=', 5.05),
  ('NCCCc1nc(-c2c[nH]c3ccccc23)cn2cc(-c3ccccc3)nc12', '=', 5.51);

----------
Measured Ki accompanies every entry in the list below.
molecular target: Somatostatin receptor type 4 (Homo sapiens); test: Inhibitory constant on human somatostatin receptor 4
Sequence (P31391 whole entry): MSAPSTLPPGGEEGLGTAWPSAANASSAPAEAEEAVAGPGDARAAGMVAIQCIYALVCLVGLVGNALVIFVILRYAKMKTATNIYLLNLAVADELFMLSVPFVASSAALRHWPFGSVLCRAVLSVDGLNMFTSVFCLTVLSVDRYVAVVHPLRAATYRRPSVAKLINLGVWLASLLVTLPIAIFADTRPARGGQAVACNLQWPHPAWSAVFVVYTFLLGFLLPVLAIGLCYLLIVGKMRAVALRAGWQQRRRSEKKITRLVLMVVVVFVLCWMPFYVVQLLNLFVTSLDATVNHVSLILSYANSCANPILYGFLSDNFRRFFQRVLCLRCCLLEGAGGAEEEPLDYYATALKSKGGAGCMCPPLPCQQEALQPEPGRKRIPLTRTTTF
parameter: Ki

INSERT INTO results (chemicalstring, testedon, recordedmeasurement) VALUES
  ('NCCCc1nc(-c2cccc([N+](=O)[O-])c2)cn2cc(-c3ccccc3)nc12', 'Somatostatin receptor type 4 (Homo sapiens)', '> 10 µM'),
  ('CCCCNC(=O)C(C)(C)c1cn2cc(-c3csc4ccccc34)nc(CCCN)c2n1', 'Somatostatin receptor type 4 (Homo sapiens)', '> 10 µM'),
  ('NCCCc1nc(-c2ccccc2)cn2cc(-c3ccccc3)nc12', 'Somatostatin receptor type 4 (Homo sapiens)', '> 5 µM'),
  ('CC(C)(C(=O)NCCc1c[nH]c2ccccc12)c1cn2cc(-c3csc4ccccc34)nc(CCCN)c2n1', 'Somatostatin receptor type 4 (Homo sapiens)', '> 10 µM'),
  ('CC(C)(C(=O)NCCc1c[nH]c2ccccc12)c1cn2cc(Cc3ccccc3)nc(CCCN)c2n1', 'Somatostatin receptor type 4 (Homo sapiens)', '7.2 µM'),
  ('CC(C)(C(=O)NC1CCCCC1)c1cn2cc(-c3csc4ccccc34)nc(CCCN)c2n1', 'Somatostatin receptor type 4 (Homo sapiens)', '> 10 µM'),
  ('NCCCc1nc(-c2c[nH]c3ccccc23)cn2cc(-c3ccccc3)nc12', 'Somatostatin receptor type 4 (Homo sapiens)', '> 10 µM');
